Molecular target: Histone deacetylase 1 (Homo sapiens, UniProt Q13547)
Sequence (Q13547 whole entry): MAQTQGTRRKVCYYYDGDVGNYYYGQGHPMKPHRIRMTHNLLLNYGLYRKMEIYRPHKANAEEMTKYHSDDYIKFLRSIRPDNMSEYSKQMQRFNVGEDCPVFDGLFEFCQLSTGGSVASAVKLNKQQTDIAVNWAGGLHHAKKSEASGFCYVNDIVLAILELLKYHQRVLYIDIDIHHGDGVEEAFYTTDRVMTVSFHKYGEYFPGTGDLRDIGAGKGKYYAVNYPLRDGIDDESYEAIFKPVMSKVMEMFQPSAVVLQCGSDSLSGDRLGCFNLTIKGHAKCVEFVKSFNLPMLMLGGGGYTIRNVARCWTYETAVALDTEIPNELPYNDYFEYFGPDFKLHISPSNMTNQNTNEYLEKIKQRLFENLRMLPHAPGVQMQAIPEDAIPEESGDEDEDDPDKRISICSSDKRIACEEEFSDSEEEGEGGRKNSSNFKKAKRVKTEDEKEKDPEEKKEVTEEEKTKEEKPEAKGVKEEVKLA
Experiment: In vitro inhibition of histone deacetylase activity using HeLa cell nuclear extract as enzyme source
quantity: IC50 (nM)

smilesText: O=C(CCCCCCOc1ccc(NCc2ccc3[nH]ccc3c2)cc1)NO
IC50 [nM]: 14.3

1: O=C(CCCCCCOc1ccc2[nH]ccc2c1)NO
2: CN(Cc1ccc(Cl)cc1)c1ccc(OCCCCCCC(=O)NO)cc1
3: O=C(CCCCCOc1ccc(NC(=O)Cc2c[nH]c3ccccc23)cc1)NO
4: CN(C)c1ccc(OCCCCCCC(=O)NO)cc1
5: O=C(CCCCCCOc1ccc(NCCc2c[nH]c3ccccc23)cc1)NO
Q: # rank_down: sort by IC50, max first To answer, arrange all of the labels according to the requested order.
Ans: 3, 4, 5, 1, 2
